B1: Twister Ribozyme (parent)
chain: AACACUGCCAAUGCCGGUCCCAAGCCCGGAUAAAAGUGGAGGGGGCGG

# Variants of: B1
# run-description: self-cleavage, relative activity (ratio to wild type); higher = more cleavage; co-transcriptional
Consider the following variants; for each one, report its self-cleavage.
Numbers only.

> print(dat)
                           residue.sequence  measured.value
1  AACACUGCCAAUGCCGGUCCUAAGCCCUGAUAAAAGUGGAGGGGGCGG [C21U G28U]           0.102
2  ACCACUGCCAAUGCCGGUCCCAAGCCCGGAUAAAAGUGGGGGGGGCGG [A2C A40G]           0.059
3  AACACUGCCAAUGGCGGUCCCAAGCCCGGAUAAAAGUGGAGGGGGGGG [C14G C46G]           0.101

Please give self-cleavage for each item listed below.
1. AACACUGCCAAUGCCGGUCCCAAGCCCGCAUAAAGGUGGAGGGGGCGG [G29C A35G]
2. AACACUGCGAAUGCCGGUCCCAAGCCCGGAUAAAAGUGCAGGGGGCGG [C9G G39C]

Ans:
[0.544, 0.132]
